# measurement target: T1, human apical domain of CD71 (human, UniProt P02786 189-383, limits assumed)
# T1 construct: domain: apical domain
# T1 sequence (P02786 189-383 limits assumed): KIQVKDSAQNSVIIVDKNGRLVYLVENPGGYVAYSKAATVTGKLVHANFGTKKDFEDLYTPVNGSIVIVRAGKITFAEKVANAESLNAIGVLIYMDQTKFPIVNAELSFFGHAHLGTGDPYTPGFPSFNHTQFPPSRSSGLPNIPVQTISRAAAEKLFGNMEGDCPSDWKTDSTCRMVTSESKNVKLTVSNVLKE
# test name: primary ELISA; signal over HSA control
value kind: Apical domain:HSA (ratio)

I: CD71-binding FN3 domain SEQ ID NO 386 (designed binder) MLPAPKNLVVSRVTEDSARLSWTAPDAAFDSFYIAYAEPRPDGEAITLLVPGSERSYDLTGLKPGTEYSVLIHGVKGGLLSSPLSAIFTT
II: CD71-binding FN3 domain SEQ ID NO 357 (designed binder) MLPAPKNLVVSRVTEDSARLSWTAPDAAFDSFFIGYLEPQPPGEAIGLFVPGSERSYDLTGLKPGTEYNVTIQGVKGGFPSDPLVAYFTT
Asked: Field: lower recorded Apical domain:HSA (choose I or II ) Respond with the label that goes with your answer.
Given back: II

Sourced from patent US20260151494A1
